Can you tell me pIC50 for the items I'm about to list?
# Target system: cAMP and cAMP-inhibited cGMP 3',5'-cyclic phosphodiesterase 10A (Homo sapiens)
# Sequence (Q9Y233 whole entry): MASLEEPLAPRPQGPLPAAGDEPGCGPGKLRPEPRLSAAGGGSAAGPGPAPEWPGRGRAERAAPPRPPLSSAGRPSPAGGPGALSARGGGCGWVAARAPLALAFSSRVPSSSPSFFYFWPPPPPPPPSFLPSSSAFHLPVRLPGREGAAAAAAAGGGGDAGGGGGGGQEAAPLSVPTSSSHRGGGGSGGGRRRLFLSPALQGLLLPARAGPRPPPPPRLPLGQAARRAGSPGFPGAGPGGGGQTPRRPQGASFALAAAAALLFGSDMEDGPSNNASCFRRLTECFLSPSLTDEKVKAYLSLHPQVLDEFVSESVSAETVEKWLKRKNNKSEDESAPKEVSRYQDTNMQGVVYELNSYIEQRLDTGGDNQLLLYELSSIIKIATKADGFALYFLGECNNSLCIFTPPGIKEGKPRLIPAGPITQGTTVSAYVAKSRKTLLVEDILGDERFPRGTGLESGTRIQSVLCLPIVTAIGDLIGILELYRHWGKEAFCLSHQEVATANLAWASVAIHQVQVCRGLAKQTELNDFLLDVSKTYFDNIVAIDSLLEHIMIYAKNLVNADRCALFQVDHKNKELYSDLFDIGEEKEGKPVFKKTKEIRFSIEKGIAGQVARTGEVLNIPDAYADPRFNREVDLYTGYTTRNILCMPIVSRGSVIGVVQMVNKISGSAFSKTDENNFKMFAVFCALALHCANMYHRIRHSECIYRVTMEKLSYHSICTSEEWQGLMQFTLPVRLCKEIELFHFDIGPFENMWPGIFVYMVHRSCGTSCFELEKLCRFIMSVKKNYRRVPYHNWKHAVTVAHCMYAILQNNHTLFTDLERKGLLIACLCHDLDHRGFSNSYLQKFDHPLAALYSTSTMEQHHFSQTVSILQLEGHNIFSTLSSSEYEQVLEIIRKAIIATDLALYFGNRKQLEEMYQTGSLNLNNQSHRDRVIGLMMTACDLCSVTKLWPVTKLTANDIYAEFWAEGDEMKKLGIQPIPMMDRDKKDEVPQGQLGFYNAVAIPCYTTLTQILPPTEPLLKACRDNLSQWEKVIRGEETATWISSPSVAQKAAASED
// field semantics: pIC50 = negative decimal log of concentration (mol/L)

# get_value(readout='pIC50', item= CN(C(=O)c1ncccc1NC(=O)c1nc(C2CC2)cnc1Nc1cncnc1)C1CCOCC1 ) 6.37

Please do the same for CNC(=O)c1cc(NC(C)=O)ccc1NC(=O)c1nc(C2CC2)cnc1Nc1cncnc1 as well. 9.40

Please do the same for COCCOc1ccc(NC(=O)c2nc(C3CC3)cnc2Nc2cncnc2)c(C(=O)NCC(C)(C)O)c1 as well. 9.15

Please do the same for CN(C(=O)c1ncccc1NC(=O)c1nc(C2CC2)cnc1Nc1cncnc1)C1CC1 as well. 7.57

Please do the same for CN(C)C(=O)c1c(NC(=O)c2nc(C3CC3)cnc2Nc2cncnc2)cnn1C as well. 7.49

Please do the same for CNC(=O)c1c(NC(=O)c2nc(C3CC3)cnc2Nc2cncnc2)cnn1CC(F)(F)F as well. 7.57

Please do the same for COCc1ccc(NC(=O)c2nc(C3CC3)cnc2Nc2cncnc2)c(C(=O)NCC(C)(C)O)n1 as well. 9.30

Please do the same for CN(CC(F)(F)F)C(=O)c1ncccc1NC(=O)c1nc(C2CC2)cnc1Nc1cncnc1 as well. 8.09

Please do the same for CC(CO)CNC(=O)c1c(NC(=O)c2nc(C3CC3)cnc2Nc2cncnc2)cnn1C (centres undefined) as well. 8.82
